# Lookup of reported Ki keyed by entry
assay: Displacement of [3H]flunitrazepam from central benzodiazepine receptor in Sprague-Dawley rat cerebral cortex membrane by liquid scintillation counting; format: tissue-based

| CHEMICAL_SMILES | LT_GT_EQ | Ki (nM) |
| --- | --- | --- |
| CCCN(CCC)C(=O)Cc1c(-c2ccc(OC(=O)CCC(=O)OC)cc2)nc2c(Cl)cc(Cl)cn12 | > | 10 |
| CCCN(CCC)C(=O)Cc1c(-c2ccc(Cl)cc2)nc2c(NC(=O)CCC(=O)OCC)cccn12 | > | 10 |
| CN(C(=O)Cc1c(-c2ccc(O)cc2)nc2c(Cl)cc(Cl)cn12)c1ccccc1 | = | 5130 |
| CCCN(CCC)C(=O)Cc1c(-c2ccc(OC(=O)CN)cc2)nc2c(Cl)cc(Cl)cn12 | > | 10 |
